Value source: the RNAGym collection of RNA variant scans (doi:10.1126/science.aae0568)

B1: tRNA (parent)
chain: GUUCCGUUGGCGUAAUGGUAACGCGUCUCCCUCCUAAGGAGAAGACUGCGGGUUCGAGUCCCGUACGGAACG

Variants of: B1
Method: yeast fitness relative to wild type (ratio to wild type); higher = fitter; tRNA-Arg(CCU), competitive growth, 37 C, YPD
Fewer inactive variants are shown than the library holds.
Value type: yeast fitness

Ordered residues | Value reported
GUUCCGUUGGCGUAAUGGUAACGCGUCUCGCUCCUAAGGAGAAGACUGCGGGUUCGAGUCCAGUACGGAACG | 0.61
GUUCAGUUGGCGUAAUGGCAACGCGUCUCCCUCGUAAGGAGAAGACUGCGGGUUAGAGUCCCGGACGGCACG | 0.598
GUUCAGUUGGCCUAAUGCUAACGCGUCUCAGUCCUAAGGAGAAGACUGCGGGUGCGAGUCCCGUACGGAACG | 0.605
